Give Delta G for every item shown.
TARGET OF ASSAY: Transthyretin (Homo sapiens)
PROTOCOL: Binding affinity against prealbumin
Please give a number only; it is taken to be in kcal/M.

Fill in reported Delta G for this entry: "CCc1c(I)c(C)c(Oc2c(I)c(C)c(CCC(=O)O)c(C)c2I)c(C)c1I"
-11.4

Give me measured Delta G, please, for this compound: CCc1cc(C)c(Oc2cc(C)c(CC(N)C(=O)O)c(C)c2I)c(C)c1 (stereo unspecified)
-5.2

Hello, please tell me recorded Delta G for this one: "CCc1c(I)c(C)c(Oc2c(I)c(C)c(CC(=O)O)c(C)c2I)c(C)c1I"
-11.9

Please indicate Delta G recorded for CCc1cc(C)c(Oc2c(I)c(C)c(CC(N)C(=O)O)c(C)c2I)c(C)c1C (stereo unspecified)
-7.4

Look up and state reported Delta G for "CCc1c(I)c(C)c(Oc2c(I)c(C)c(C(=O)O)c(C)c2I)c(C)c1I"
-11.1

Name the recorded Delta G of the compound listed here: CCc1c(I)c(C)c(Oc2c(C)c(C)c(CC(N)C(=O)O)c(C)c2C)c(C)c1I (stereo unspecified)
-7.7

Query Delta G for CCc1cc(C)c(Oc2cc(C)c(CC(N)C(=O)O)c(C)c2I)c(C)c1I (stereo unspecified)
-7.6

Identify measured Delta G associated with CCc1cc(C)c(Oc2c(I)c(C)c(CC(N)C(=O)O)c(C)c2I)c(C)c1C(C)C (stereo unspecified)
-7.8

# return recorded Delta G for entry "CCc1c(I)c(C)c(Oc2c(I)c(C)c(CCN)c(C)c2I)c(C)c1I"
-9.7

Please list Delta G recorded for the compound "CCc1cc(C)c(Oc2c(I)c(C)c(CC(=O)O)c(C)c2I)c(C)c1I"
-9.7

// fetch Delta G given entry CCc1c(I)c(C)c(Oc2c(I)c(C)c(CC(N)C(=O)O)c(C)c2I)c(C)c1I (stereo in doubt; 26)
-8.7

Assign Delta G to the following record: CCc1c(Br)c(C)c(Oc2c(I)c(C)c(CC(N)C(=O)O)c(C)c2I)c(C)c1Br (stereo unspecified)
-9.2

For the compound CCc1cc(C)c(Oc2c(I)c(C)c(CC(N)C(=O)O)c(C)c2I)c(C)c1 (stereo unspecified) , report Delta G.
-7.1

Answer with the recorded Delta G of CCc1c(C)c(C)c(Oc2c(I)c(C)c(CC(N)C(=O)O)c(C)c2I)c(C)c1C (stereo unspecified) only.
-6.6

Specify measured Delta G for CCc1cc(C)c(Oc2c(I)c(C)c(CC(N)C(=O)O)c(C)c2I)c(C)c1Br (stereo unspecified) .
-8.2

Note Delta G for the compound shown: "CCc1c(I)c(C)c(Oc2c(I)c(C)c(CCCC(=O)O)c(C)c2I)c(C)c1I"
-11.3

Cited source: ChEMBL document CHEMBL1121784
